- ASSAY_SUMMARY: NCI Yeast Anticancer Drug Screen. Data for the rad50 strain (AID 155);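 also: 0% = growth of vehicle-only cultures of the same strain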
- COND: S. cerevisiae rad50 strain growth inhibition; at 50.0 µM (retest, dose inferred, filed as 5.0)
About 79,000 compounds went through this panel and 15% of them were active in at least one assay; those are over-represented in the sample as a whole. Activity calls are given as the source filed them. Rule as the data show it: active = growth inhibition above about 70%; inactive = the rest.
I would appreciate it if you answered using one of these outcomes: active, inactive

Record excerpt, results attached:
Outcome logged for O=C1C=CC(=O)c2c(O)c(N3CCC[C@@H]3CO)c(Cl)c(O)c21 in this assay:
inactive

Assay result, entry COc1ccc(Cc2coc3ccccc3c2=O)cc1OC — outcome?
inactive

Identify the outcome logged in this assay for the compound shown: COC(=O)c1ccc(NCC2=C(Br)C(=O)C=CC2=O)cc1Cl
active

State the result this test recorded for CCc1c(C)[nH]c(-c2csc(N)n2)c1C .
active

Name the outcome recorded for CN1C=COC1N=C1CCCCC1 (stereo unspecified) in the assay.
inactive

// param item: O=C(CN1CCCCC1)c1ccc(/C=C/c2ccc(Cl)cc2)cc1 ; yields the recorded call
active

Continuing:
Hello, I am checking results. What call was entered for O=NN(CCCl)C(=O)Oc1ccc(OC(=O)N(CCCl)N=O)cc1 ?
active

Dear colleague, could you share the recorded outcome for CC1=C(C)C(=O)C(C(C)(C)CC(=O)n2cc(F)c(=O)[nH]c2=O)=C(C)C1=O when you have a moment?
active

State the result this test recorded for COc1ccc(/C=N/N=c2\[nH][nH]/c(=N\N=C\c3ccc(OC)c4ccccc34)c3ccccc23)c2ccccc12 .
inactive

----------
Let's look at some compounds and their measured growth inhibition.
- ASSAY_SUMMARY: NCI Yeast Anticancer Drug Screen. Data for the mlh1 rad18 strain (AID 175)
- COND: S. cerevisiae mlh1 rad18 strain growth inhibition; at 50.0 µM; active compounds read high
This is part of a sample that, as a whole, favours compounds with a hit. Of some 79,000 tested, about 15% had one in any assay. Calls of active or inactive are those of the source. Rule as the data show it: active = growth inhibition above about 70%; inactive = the rest.

Solved entries:
Summary for this compound, CCOC(=O)C1(C#N)C(c2ccccc2)CC(O)(c2ccc([N+](=O)[O-])cc2)C(C(=O)c2ccc([N+](=O)[O-])cc2)C1c1ccccc1 (configuration not stated) : growth inhibition is 21.2% (inactive)

Notebook: CCCCCCCCCCCCNCc1ccc(O)c(OC)c1 , growth inhibition read as 97.5% (active)

For CCC1CCC2C3CC=C4CC(OC(C)=O)C(N)CC4(C)C3CCC12C (configuration not stated) the compound record lists growth inhibition as 91.8% (active)

***
Lab note: measured growth inhibition of N#CC(Nc1cccc(C(F)(F)F)c1)c1ccccc1C(F)(F)F (configuration not stated) was 84.8% (active)

// recorded growth inhibition for CCOc1cc2c(cc1Cc1c(OC)cc(OC)cc1OC)OCO2 : 83.3% (active)

The compound listed as CC(=O)/C(=C\c1ccc(Cl)cc1Cl)C(=O)CCN(C)C shows growth inhibition equal to 98.8% (active)

In plain terms, Cc1cc(C(=O)O)c(C)c2c1sc1ccccc12 has a documented growth inhibition of 81.2% (active)

The compound identified as CN(C)C(=O)c1cc(Br)cc(-c2ccccc2)c1O registered its growth inhibition at 51.8% (inactive)

growth inhibition measured on CC(=O)NC1CCCCC1c1ccc(C2CCCCC2NC(C)=O)cc1 (configuration not stated) = 1.9% (inactive)

Lookup result for C=C(CN1CCCC1)C(=O)c1ccc(OC)cc1 ; measured growth inhibition: 46.6% (inactive)

growth inhibition in this record for Cc1cc(N/N=C(\c2ccccc2)c2ccccn2)nc2ccccc12 : 97.5% (active)

Just so you know, measured growth inhibition for CC(C)(C)c1cc(C(P(=O)(c2ccccc2)c2ccccc2)P(=O)(c2ccccc2)c2ccccc2)cc(C(C)(C)C)c1O came out at 96.7% (active)

----------
- ASSAY_SUMMARY: NCI Yeast Anticancer Drug Screen. Data for the mlh1 rad18 strain (AID 175)
- COND: S. cerevisiae mlh1 rad18 strain growth inhibition; at 50.0 µM; active compounds read high
Compounds without any hit were thinned out: in the full panel of roughly 79,000, 15% have a hit.
EXPERIMENTAL_READOUT: growth inhibition (%)
// units = %; emit number, no label

Examples from the recorded data:
The measured growth inhibition associated with CC(C)(C)C(=O)CC(=O)C(F)(F)C(F)(F)C(F)(F)F.CC(C)(C)C(=O)CC(=O)C(F)(F)C(F)(F)C(F)(F)F.CC(C)(C)C(=O)CC(=O)C(F)(F)C(F)(F)C(F)(F)F.[Gd] reads 88.8

The value of growth inhibition measured for the compound CCOC(=O)C1c2[nH]c3ccccc3c2CCN1C(=O)c1ccc(OC)o1 (centres undefined) turned out to be 83.2

Further cases:
Recorded result, O=C(CSc1nnc(-c2ccc(N=Cc3ccc(Cl)cc3)cc2)o1)Nc1ccc(Cl)cc1Cl , growth inhibition: 97.9

Just so you know, measured growth inhibition for CCC(=O)OC1=C(Br)C(=O)c2ccccc2C1=O came out at 76.6

----------
- ASSAY_SUMMARY: NCI Yeast Anticancer Drug Screen. Data for the rad50 strain (AID 155);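 also: 0% = growth of vehicle-only cultures of the same strain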
- COND: S. cerevisiae rad50 strain growth inhibition; at 5.0 µM (retest, dose inferred, filed as 0.5); active compounds read high
The panel holds about 79,000 compounds, 15% with a hit somewhere; the sample as a whole holds those more often.
EXPERIMENTAL_READOUT: growth inhibition (%)
Hi! Could you send only the number? It should be in %, unit omitted.

Field growth inhibition (entry O=C(O)CCCCCCCCC(=O)CCl ) reads 9

Sure, the documented growth inhibition for Cc1cc(C)c(Cc2ccccc2O)cc1Cc1ccccc1O is 33

Please fill in: growth inhibition reported for CC1([N+](=O)[O-])C(=O)C2(N3CCOCC3)CCCC2C1c1ccccc1 (configuration not stated) = -9

Next:
// growth inhibition value for CCCCCCCCN1C(=O)c2ccccc2S1(=O)=O : -2

Sure, the documented growth inhibition for c1ccc(CC(Nc2cccnc2)c2ccccc2)cc1 (configuration not stated) is 6

Sure, the documented growth inhibition for CC(CN(C)C)C(=O)/C=C/c1c(Cl)cccc1Cl (configuration not stated) is 2

----------
Catalogue of growth inhibition readings, one per entry.
- ASSAY_SUMMARY: NCI Yeast Anticancer Drug Screen. Data for the mec2-1 strain (AID 157)
- COND: S. cerevisiae mec2-1 strain, at 50.0 µM (retest, dose inferred, filed as 5.0), active compounds read high
About 79,000 compounds went through this panel and 15% of them were active in at least one assay; those are over-represented in the sample as a whole.
Reply with just the number (in %).

Before answering, review these 2 worked examples.
The compound listed as CN1c2ccccc2C(=O)NC1c1ccc([N+](=O)[O-])s1 (stereo unspecified) has a reported growth inhibition of 8

// growth inhibition lookup, compound = CC(/C=C/c1ccco1)=N\NC(=S)NCC(C)C , result: 53

***
# growth inhibition of Cc1cc(N=Nc2ccccc2)ccc1O = 100

----------
- ASSAY_SUMMARY: NCI Yeast Anticancer Drug Screen. Data for the bub3 strain (AID 167)
- COND: S. cerevisiae bub3 mutant strain, at 50.0 µM (retest, dose inferred, filed as 5.0), active compounds read high
About 79,000 compounds went through this panel and 15% of them were active in at least one assay; those are over-represented in the sample as a whole.
# if value of growth inhibition reaches 90%, tag 1; if it stays below, tag 0

Here's what some known entries look like.
State whether the measured growth inhibition reaches 90%, counting equality as reaching it, for O=C(Nc1ccc2c(c1)Cc1cc([N+](=O)[O-])c(F)cc1-2)C(F)(F)F
0

Threshold query (growth inhibition >= 90%) on C[CH2][Sn]([CH2]C)([O]C(=O)c1ccccc1OC)[O][Sn]([CH2]C)([CH2]C)[O]C(=O)c1ccccc1OC
1

Identify whether the reported growth inhibition of the following molecule is 90% or greater: Oc1c(Cl)cc(Cl)cc1/C=C1\C=Nc2ccccc21
0

Hi, just wondering whether O=C(CSSCC(=O)Nc1ccccc1)Nc1ccccc1 shows growth inhibition of 90% or higher.
0

Has CC(=O)OC1=CC(n2cc(F)c(=O)[nH]c2=O)OC(C)C1=O (stereo not drawn) a recorded growth inhibition greater than or equal to 90%?
0

Could you tell me if the measured growth inhibition of CC1=NOC(=O)C1N=Nc1ccc(Br)cc1C (stereo not drawn) reaches 90% or more?
1

Test whether the molecule CC(C)SC(=S)Nc1cc(Cl)c(Cl)cc1Cl records growth inhibition of 90% or higher.
0

Confirm if growth inhibition reported for the molecule C=C(Br)CN(CC(=C)Br)C(C)=O is 90% or above.
0

Others:
Does the molecule Cc1c(N=Nc2ccccc2Cl)c(-c2ccccc2)nn1C(=S)S have recorded growth inhibition that is 90% or more?
0

Determine whether measured growth inhibition meets or exceeds 90% for COc1ccc2c(c1)C(=O)/C(=C/c1ccc([N+](=O)[O-])o1)CO2
1

Item O=C(Nc1ccc(Cl)c(Cl)c1)Nc1cc(Cl)ccc1Oc1ccc(Cl)cc1S(=O)(=O)O with growth inhibition of 90% or above?
1

# check: growth inhibition of O=C(Nc1cccc(C(F)(F)F)c1)C(Cl)=C(Cl)Cl is greater than or equal to 90%
1

# bool: growth inhibition of O=C(COc1ccc(Cl)cc1)OCCO >= 90%
0

Determine whether this molecule has growth inhibition no lower than 90%: O=C(/C=C(\OB(F)F)c1ccccc1)c1ccccc1
0

Textbook exercise: given the entry Cc1ccc([N+](=O)[O-])c2c(NCCCN(C)C)c3ccccc3nc12 , state whether its growth inhibition is greater than or equal to 90%.
1

Please tell me: is the molecule CCC(=O)OC1=C(Br)C(=O)c2ccccc2C1=O at or over 90% in terms of growth inhibition?
1

In plain terms: is recorded growth inhibition at least 90% for CC[N](CC)[Ge]([CH2]C)[CH2]C.CC[N](CC)[Ge]([CH2]C)[CH2]C ?
1

Dear colleague, could you confirm whether C=CCC1(OC(C)=O)CC2C(=O)C(=O)C(C1)N2OC(=O)c1ccccc1 (stereo not drawn) has growth inhibition at or above 90%?
1

growth inhibition >= 90% for CN(NS(=O)(=O)c1cccc([N+](=O)[O-])c1)c1ccccc1 ?
0
